These data points were gathered from ChEMBL document CHEMBL4513216.

- Experiment description: Toxicity liver stage against HepG2, at 10uM
- Assay type: cell-based
- Design: test concentration 10 uM, cell line HepG2-A16-CD81EGFP
- Setup conditions: human, HepG2-A16-CD81EGFP cells; read-out: INHIBITION
The following molecules are listed with their measured cytotoxicity at 10 µM values.
# value in %; strip the unit string

Some molecules with known cytotoxicity at 10 µM results, for comparison:
[
  {
    "Molecule": "CNc1cc(C)nc(C2COCCN2CCOc2ccc(F)cc2)n1 (centres undefined)",
    "Measurement name": "cytotoxicity at 10 µM",
    "Measurement": 3.18
  },
  {
    "Molecule": "Cc1ccccc1-c1noc(CN2CCn3c(nnc3C3CC3)C2)n1",
    "Measurement name": "cytotoxicity at 10 µM",
    "Measurement": -7.64
  },
  {
    "Molecule": "Cc1oc(-c2ccco2)nc1CN1CCc2cnc(C(C)C)nc2C1",
    "Measurement name": "cytotoxicity at 10 µM",
    "Measurement": 0.0371
  }
]

[Q] Fill in reported cytotoxicity at 10 µM for this entry: "COc1nccnc1N1CCN(Cc2cccc(C)c2)C(=O)C1"
[A] -0.408

[Q] Fill in reported cytotoxicity at 10 µM for this entry: "COc1ccc(Cl)cc1-n1cnc(CCNC(C)=O)c1"
[A] 2.29

[Q] Fill in reported cytotoxicity at 10 µM for this entry: "Cc1nn(CC(C)C)c(N(C)C)c1CNCc1ccccc1CO"
[A] -15.2

[Q] Fill in reported cytotoxicity at 10 µM for this entry: "O=C(c1cscn1)N1CCC2(CCN(Cc3cccs3)CC2)C1"
[A] 3.91

[Q] Fill in reported cytotoxicity at 10 µM for this entry: O=C(NCC(F)(F)F)C1CCCN(Cc2ccno2)C1 (centres undefined)
[A] -4.13

[Q] Fill in reported cytotoxicity at 10 µM for this entry: CCCN(C1CCc2ccccc2C1)S(C)(=O)=O (centres undefined)
[A] 0.595

[Q] Fill in reported cytotoxicity at 10 µM for this entry: "O=C(c1cc(-c2ccn(CC3CC3)n2)n2ccccc12)N1CCCO1"
[A] 5.07

[Q] Fill in reported cytotoxicity at 10 µM for this entry: "CC(=O)N1CCc2nc(-c3ccc(F)cc3)nc(NC(C)C)c2CC1"
[A] -114

[Q] Fill in reported cytotoxicity at 10 µM for this entry: Cn1cc(S(=O)(=O)N2CCCC(Cn3cncn3)C2)cn1 (centres undefined)
[A] 2

[Q] Fill in reported cytotoxicity at 10 µM for this entry: "Cn1ccc2c(C(=O)NCCCN3CCOCC3)cccc21"
[A] -0.452

[Q] Fill in reported cytotoxicity at 10 µM for this entry: "Cc1nc(-n2cnnc2)ccc1-c1cccc2c1CCNC2"
[A] 12.2

[Q] Fill in reported cytotoxicity at 10 µM for this entry: O=C(C1CCOC1)N1CCC2(CCN(Cc3nccs3)CC2)CC1 (centres undefined)
[A] -73.3

[Q] Fill in reported cytotoxicity at 10 µM for this entry: "O=C(CC1CCCC1)N1CCN(c2ccc(-n3cncn3)nn2)CC1"
[A] -11.9

[Q] Fill in reported cytotoxicity at 10 µM for this entry: "CN(C)CCO[C@@H]1CC[C@H]2[C@H]1OCCN2C(=O)c1ccncc1"
[A] 5

[Q] Fill in reported cytotoxicity at 10 µM for this entry: "CCSc1ccccc1C(=O)N1CCC(S(=O)(=O)c2nncn2C)CC1"
[A] 0.595

[Q] Fill in reported cytotoxicity at 10 µM for this entry: "Cn1cc(NC(=O)N2CCC(NS(C)(=O)=O)CC2)ccc1=O"
[A] -7.05

[Q] Fill in reported cytotoxicity at 10 µM for this entry: "O=C1CCN(C(=O)NCCCc2ccc(Cl)cc2Cl)CCN1"
[A] -2.37

[Q] Fill in reported cytotoxicity at 10 µM for this entry: O=C(CN1CCCC(c2ccn[nH]2)C1)Nc1nc2c(s1)CCCC2 (centres undefined)
[A] -43.3

[Q] Fill in reported cytotoxicity at 10 µM for this entry: "CCN(CC)C(=O)COc1nc(C(C)C)no1"
[A] 3.6

[Q] Fill in reported cytotoxicity at 10 µM for this entry: Cc1nc(CN2CCCC(Cn3cc(CCO)nn3)C2)c2ccccn12 (centres undefined)
[A] 3.28

[Q] Fill in reported cytotoxicity at 10 µM for this entry: "CC(C)NC(=O)C[C@@H]1CCNC[C@@H]1Cc1cc(-c2ccccc2)on1"
[A] -0.626

###

- Experiment description: Toxicity liver stage against HepG2, at 10uM
- Assay type: cell-based
- Set-up: test concentration 10 uM, cell line HepG2-A16-CD81EGFP
- Setup conditions: human, HepG2-A16-CD81EGFP cells; read-out: INHIBITION
The following molecules are listed with their measured cytotoxicity at 10 µM values.
# value in %; strip the unit string

Some molecules with known cytotoxicity at 10 µM results, for comparison:
[
  {
    "Molecule": "Cc1nc(C)n(CC2CCCN(CC(=O)Nc3ccncc3)C2)n1 (stereo not drawn)",
    "Unit label": "%",
    "Measurement": -5.75
  },
  {
    "Molecule": "Cc1ccc(C(=O)NCc2cccnc2N(C)C)s1",
    "Unit label": "%",
    "Measurement": -2.12
  },
  {
    "Molecule": "COc1ccnc(N2CCN(C(=O)Cc3ccc(C#N)cc3)CC2)n1",
    "Unit label": "%",
    "Measurement": 4.09
  },
  {
    "Molecule": "Cc1cccc(CN2CCN(C(=O)c3cc(Cl)c[nH]c3=O)CC2)c1",
    "Unit label": "%",
    "Measurement": 1.47
  },
  {
    "Molecule": "COc1ccc(-c2cnc(CN3CCCC3Cn3cccn3)o2)cc1 (stereo not drawn)",
    "Unit label": "%",
    "Measurement": -5.71
  },
  {
    "Molecule": "CC(C)[C@@H]1CN(C(=O)NCc2ccco2)C[C@H]1NS(=O)(=O)N(C)C",
    "Unit label": "%",
    "Measurement": 6.14
  },
  {
    "Molecule": "O=C(O)c1ccccc1-n1cnc(CN2CCCc3ccccc32)c1",
    "Unit label": "%",
    "Measurement": 6.58
  },
  {
    "Molecule": "CS(=O)(=O)NC1CCCN(C(=O)NCc2cccnc2)C1 (stereo not drawn)",
    "Unit label": "%",
    "Measurement": 1.59
  },
  {
    "Molecule": "COc1cccc(C(=O)N2CCc3ncnc(C)c3CC2)c1",
    "Unit label": "%",
    "Measurement": -12.6
  },
  {
    "Molecule": "Cc1ccc(N2CCC(NC(C)c3cccs3)CC2)nc1 (stereo not drawn)",
    "Unit label": "%",
    "Measurement": -9.64
  }
]

[Q] Fill in reported cytotoxicity at 10 µM for this entry: "CNC(=O)C(C)(C)CNC(=O)Nc1ccncc1C"
[A] -12.1

[Q] Fill in reported cytotoxicity at 10 µM for this entry: CC(C)CN(Cc1cnn(C)c1)C(=O)C1COc2ccccc2C1 (stereo not drawn)
[A] 0.956

[Q] Fill in reported cytotoxicity at 10 µM for this entry: "CCOC(=O)c1sc(NC(=O)C(C)C)c(C#N)c1C"
[A] -15.9

###

- Experiment description: Toxicity liver stage against HepG2, at 10uM
- Type: cell-based
- Parameters: test concentration 10 uM, cell line HepG2-A16-CD81EGFP
- Setup conditions: human, HepG2-A16-CD81EGFP cells; read-out: INHIBITION
Measurement name: cytotoxicity at 10 µM (%)
# value in %; strip the unit string

Some compounds with known cytotoxicity at 10 µM results, for comparison:
[
  {
    "Compound": "CNCc1cc(F)ccc1Oc1ccc(F)cc1F",
    "Unit label": "%",
    "cytotoxicity at 10 µM": -11
  },
  {
    "Compound": "Cc1cnn(Cc2cc(F)ccc2F)c1NC(=O)C1COCCO1 (centres undefined)",
    "Unit label": "%",
    "cytotoxicity at 10 µM": 21.5
  },
  {
    "Compound": "CC(C)Cn1ncc(C(=O)NS(=O)(=O)c2ccccc2)c1C1CC1",
    "Unit label": "%",
    "cytotoxicity at 10 µM": 2.35
  },
  {
    "Compound": "COc1cc(C)ccc1OCc1nc(C(=O)N2CCCO2)co1",
    "Unit label": "%",
    "cytotoxicity at 10 µM": -45.9
  },
  {
    "Compound": "CC(C#N)NS(=O)(=O)c1cccc(C(C)C)c1 (centres undefined)",
    "Unit label": "%",
    "cytotoxicity at 10 µM": 0.846
  }
]

[Q] Fill in reported cytotoxicity at 10 µM for this entry: CCC(=O)N1CCCC1c1nccnc1Nc1ncccn1 (centres undefined)
[A] 3.58

[Q] Fill in reported cytotoxicity at 10 µM for this entry: "Cn1nc(C#N)c2c1CN(C(=O)c1ccnnc1)CCC2"
[A] -147

[Q] Fill in reported cytotoxicity at 10 µM for this entry: OC1(CNC2CCN(c3ccccn3)CC2)CCc2ccccc21 (centres undefined)
[A] -3.48

[Q] Fill in reported cytotoxicity at 10 µM for this entry: Cc1cc(CS(=O)(=O)C(C)C(=O)N(C)c2ccccc2)on1 (centres undefined)
[A] 2.74

[Q] Fill in reported cytotoxicity at 10 µM for this entry: "Cc1ccc2[nH]c(=O)c(CNCCCN3CCOCC3)cc2c1"
[A] -14.9
